Test: physchem
Settings: water
Mark 1 (yes) for reported solubility of 300 µg/mL or greater; mark 0 (no) for anything smaller.

**Q:** Entry NS(=O)(=O)c1cc(C2(O)NC(=O)c3ccccc32)ccc1Cl (centres unmarked) : is its solubility no less than 300 µg/mL?
**A:** 0 (no)

**Q:** Entry `O=[N+]([O-])OCC(CO[N+](=O)[O-])O[N+](=O)[O-]` : is its solubility no less than 300 µg/mL?
**A:** 1 (yes)

**Q:** Entry `C[C@@H]1C[C@H]2[C@@H]3CCC4=CC(=O)C=C[C@]4(C)[C@@]3(F)[C@@H](O)C[C@]2(C)[C@@]1(O)C(=O)CO` : is its solubility no less than 300 µg/mL?
**A:** 0 (no)

**Q:** Entry `Cn1c(=O)c2[nH]cnc2n(C)c1=O` : is its solubility no less than 300 µg/mL?
**A:** 1 (yes)

**Q:** Entry `C[C@]12CCC(=O)C=C1CC[C@@H]1[C@@H]2CC[C@@]2(C)[C@H]1CC[C@]2(C)O` : is its solubility no less than 300 µg/mL?
**A:** 0 (no)

* * *

Experiment: physchem
Settings: 40% hydroxypropyl-β-cyclodextrin, 1% ethanolamine, Solubility in solubilizer solution
assay-metric: solubility at 24 h (mg/mL)
Numeric only. Scale: mg/mL

**Q:** Entry `CC1=C(/C=C/C(C)=C/C=C/C(C)=C/C(=O)O)C(C)(C)CCC1` has what solubility at 24 h?
**A:** 28.4

* * *

Experiment: physchem
Settings: hydroxypropyl-β-cyclodextrin in water, Solubility in solubilizer solution
assay-metric: solubility at 24 h

**Q:** Entry CC(C)NNC(=O)c1ccncc1 [iproniazid phosphate] has what solubility at 24 h?
**A:** 95 mg/mL

**Q:** Entry CC1=C(/C=C/C(C)=C/C=C/C(C)=C/CO)C(C)(C)CCC1 [retinol] has what solubility at 24 h?
**A:** 5.5 mg/mL

**Q:** Entry NS(=O)(=O)c1cc2c(cc1C(F)(F)F)NCNS2(=O)=O [hydroflumethiazide] has what solubility at 24 h?
**A:** 9.3 mg/mL

**Q:** Entry CN1CCc2cccc3c2[C@H]1Cc1ccc(O)c(O)c1-3 [apomorphine] has what solubility at 24 h?
**A:** 116 mg/mL

**Q:** Entry NS(=O)(=O)c1cc(C2(O)NC(=O)c3ccccc32)ccc1Cl (stereo not drawn) [chlorthalidone] has what solubility at 24 h?
**A:** 10.5 mg/mL

**Q:** Entry C#C[C@]1(O)CC[C@H]2[C@@H]3CCc4cc(OC)ccc4[C@H]3CC[C@@]21C [ethinylestradiol-3-methyl ether] has what solubility at 24 h?
**A:** 27 mg/mL

**Q:** Entry Nc1nc2c(ncn2COCCO)c(=O)[nH]1 [acyclovir] has what solubility at 24 h?
**A:** 2.5 mg/mL

**Q:** Entry CC(=O)S[C@@H]1CC2=CC(=O)CC[C@]2(C)[C@H]2CC[C@@]3(C)[C@@H](CC[C@@]34CCC(=O)O4)[C@H]12 [spironolactone] has what solubility at 24 h?
**A:** 42 mg/mL

**Q:** Entry CC1=C(/C=C/C(C)=C/C=C/C(C)=C/C=O)C(C)(C)CCC1 [retinal] has what solubility at 24 h?
**A:** 2.6 mg/mL

Where do these numbers come from? They come from patent US4727064A.
